These entries and their values trace back to patent US12110276B2.

Molecular target: UniProt:P28347
Assay: TR-FRET lipid pocket probe competition assay (Lipid HTRF), TEAD1
Format: binding
Conditions: 4 hours pre-incubation; read-out: Lipid HTRF TEAD1 IC50
Measured property: pIC50
Answers are plain numbers, as −log10 of the molar value.

Record excerpt, results attached:
C=CC(=O)N(C)Cc1nn(-c2ccc(OC(F)(F)F)cc2)c2nccc([C@@H](O)CO)c12; 6.77
O=C(/C=C/CO)N1CC(c2nn(-c3ccc(OC(F)(F)F)cc3)c3nccc(Cl)c23)C1; 8.10
C=CC(=O)NCc1nn(-c2ccc(OC(F)(F)F)cc2)c2nccc(-c3cnn(C4COC4)c3)c12; 7.22

Please state, for each entry, its recorded pIC50.
1. C=CC(=O)NCc1nn(-c2ccc(OC(F)(F)F)cc2)c2nccc(-c3cnn(CCS(C)(=O)=O)c3)c12
2. C[C@@H](O)/C=C/C(=O)N1CC(c2nn(-c3ccc(OC(F)(F)F)cc3)c3nccc(CO)c23)C1
3. C=C(F)C(=O)N1CC(c2nn(-c3ccc(OC(F)(F)F)cc3)c3nccc([C@H](O)CO)c23)C1
4. C=C(F)C(=O)N1CC(c2nn(-c3ccc(OC(F)(F)F)cc3)c3nccc(N4CC([C@@H](O)CO)C4)c23)C1
5. C=CC(=O)NCc1nn(-c2ccc(S(F)(F)(F)(F)F)cc2)c2nccc([C@@H](O)CO)c12 (stereo in doubt)
6. O=C(/C=C/Cl)NCc1nn(-c2ccc(OC(F)(F)F)cc2)c2nccc(CO)c12
7. C=CC(=O)NCc1nn(-c2ccc(OC(F)(F)F)cc2)c2nccc(N3CC[C@@H](O)C3)c12

6.85
7.36
7.46
7.42
6.54
8.16
7.48

The following compounds each have a reported value; give each one's pIC50.
1. C=C(F)C(=O)N1CC(c2nn(-c3ccc(OC(F)(F)F)cc3)c3nccc(NC(=O)CO)c23)C1
2. C=CC(=O)NCc1nn(-c2ccc(OC(F)(F)F)cc2)c2nccc([C@H](O)CO)c12
3. C=CC(=O)NCc1nn(-c2ccc(OC(F)(F)F)cc2)c2nccc(N3CC(NC(C)=O)C3)c12
4. C=CC(=O)NCc1nn(-c2ccc(OC(F)(F)F)cc2)c2nccc([C@H]3C[C@H](O)C3)c12

[7.70, 7.46, 7.57, 7.41]

###

Molecular target: TEAD1 (Homo sapiens (Human), UniProt P28347)
Sequence (P28347 whole entry, species assumed): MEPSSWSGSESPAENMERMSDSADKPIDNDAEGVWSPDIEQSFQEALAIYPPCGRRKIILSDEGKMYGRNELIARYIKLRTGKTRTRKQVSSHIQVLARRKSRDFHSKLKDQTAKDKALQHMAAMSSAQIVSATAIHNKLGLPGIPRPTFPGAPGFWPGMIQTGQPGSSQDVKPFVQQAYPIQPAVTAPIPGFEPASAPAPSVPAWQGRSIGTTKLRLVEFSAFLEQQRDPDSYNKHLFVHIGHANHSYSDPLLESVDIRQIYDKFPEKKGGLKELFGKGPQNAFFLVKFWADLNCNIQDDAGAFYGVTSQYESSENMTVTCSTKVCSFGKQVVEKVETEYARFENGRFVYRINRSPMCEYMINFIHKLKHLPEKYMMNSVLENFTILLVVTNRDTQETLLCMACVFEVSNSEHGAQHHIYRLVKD
Test: TR-FRET lipid pocket probe competition assay (Lipid HTRF), TEAD1;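 note: His-tagged TEAD1 with biotinylated probe, detected via Europium anti-His and XL665 streptavidin, probe displacement lowers TR-FRET signal, IC50 from four-parameter nonlinear fit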
Assay type: binding
Details: 4 hours pre-incubation; read-out: Lipid HTRF TEAD1 IC50
Counter-ions that a name gives are not always drawn.
Measured property: pIC50
Numbers only, as −log10 of the molar value.

C=CC(=O)NCc1nn(-c2ccc(OC(F)(F)F)cc2)c2nccc(N3CC(CO)C3)c12; 7.89
C=CC(=O)NCc1nn(-c2ccc(OC(F)(F)F)cc2)c2nccc(N3CC[C@H](O)C3)c12; 7.30
C=CC(=O)NCc1nn(-c2ccc(OC(F)(F)F)cc2)c2nccc(N[C@H]3C[C@@H](O)C3)c12; 7.80
C=C(F)C(=O)N1CC(c2nn(-c3ccc(OC(F)(F)F)cc3)c3nccc(-c4c[nH]cn4)c23)C1; 6.42
C=CC(=O)NCc1nn(-c2ccc(OC(F)(F)F)cc2)c2nccc(O[C@H]3C[C@@H](O)C3)c12; 7.64

Batch: pIC50 for all items listed.
1. COC/C=C/C(=O)N1CC(c2nn(-c3ccc(OC(F)(F)F)cc3)c3nccc(CO)c23)C1
2. O=C(/C=C\Cl)NCc1nn(-c2ccc(OC(F)(F)F)cc2)c2nccc(CO)c12
3. C=CC(=O)NCc1nn(-c2ccc(OC(F)(F)F)cc2)c2nccc([C@H](O)COC(=O)CN)c12 [Compound 145, formate]

[7.80, 8.48, 6.85]

Lab note: measured pIC50 of "C=CC(=O)NCc1nn(-c2ccc(OC(F)(F)F)cc2)c2nccc(N3CCOCC3)c12" was 7.03
